Taken from patent US20220064329A1.

Target: T1, recombinant human activated Factor VII (FVIIa) (human, UniProt P08709 61-212; P08709 213-466, ten glutamate residues of the Gla domain may be gamma-carboxylated)
T1 construct: chains tethered by a disulfide bond; also called Factor VIIa; rFVIIa
T1 sequence 1: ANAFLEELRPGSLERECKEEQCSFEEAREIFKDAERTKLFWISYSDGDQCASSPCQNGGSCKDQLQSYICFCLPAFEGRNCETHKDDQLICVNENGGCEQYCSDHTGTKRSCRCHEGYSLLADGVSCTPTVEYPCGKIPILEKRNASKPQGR
T1 sequence 2: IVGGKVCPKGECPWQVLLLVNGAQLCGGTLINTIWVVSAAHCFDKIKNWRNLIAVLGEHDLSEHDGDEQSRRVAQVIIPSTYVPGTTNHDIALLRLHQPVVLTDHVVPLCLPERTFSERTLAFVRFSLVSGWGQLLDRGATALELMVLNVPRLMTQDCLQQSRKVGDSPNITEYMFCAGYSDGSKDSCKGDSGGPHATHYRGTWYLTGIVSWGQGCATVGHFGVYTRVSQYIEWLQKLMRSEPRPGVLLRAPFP
Experiment: BLI (Fortebio)
Protocol: All steps were performed in running buffer (20 mM HEPES buffer (pH 7.4), 150 mM NaCl, 5 mM CaCl2, 0.03% Tween 20, 1 mg/ml IgG-free BSA) at […] Antibodies were captured on anti-human tips (AHC, Fortebio) for 3 min at a concentration of 10 ug/ml. […] Following this, association was monitored for 3 min using four different concentrations of VIIa (25 nm, 50 nM, 100 nM, and 200 nM), followed by a 3 mi dissociation. Sensorgrams were analysed using Fortebio data analysis software.
reported metric: Kd (nM)
Express it in nM; write the number only.

Reference set (2 entries):
VH SEQ ID NO 618 / VL SEQ ID NO 478 (antibody, IgG4, V domains shown, humanized 11F2; IgG4 S228P/kappa) VH: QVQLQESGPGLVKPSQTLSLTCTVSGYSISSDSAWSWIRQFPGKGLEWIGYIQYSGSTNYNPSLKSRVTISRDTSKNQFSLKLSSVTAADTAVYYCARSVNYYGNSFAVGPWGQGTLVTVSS VL: EIVLTQSPATLSLSPGERATLSCRASQGVSDYLHWYQQKPGQAPRLLIKYASQPATGIPARFSGSGSGTDFTLTISSLEPEDFAVYYCQQGHSFPLTFGQGTKLEIK = 2
VH SEQ ID NO 570 / VL SEQ ID NO 398 (antibody, IgG4, V domains shown, humanized 11F2; IgG4 S228P/kappa) VH: QVQLQESGPGLVKPSDTLSLTCAVSGYSISSDSAWSWIRQPPGKGLEWIGYIQYSGSTNYNPSLKSRVTMSRDTSKNQFSLKLSSVTAADTAVYYCARSVNYYGNSFAVGPWGQGTLVTVSS VL: EIVLTQSPATLSLSPGERATLSCRASQGVSDYLAWYQQKPGEAPRLLIKYTSQPATGIPARFSGSGSGTDFTLTISSLEPEDFAVYYCQNGHSFPLTFGQGTKLEIK = 29

Let us move to another entry and its Kd.
Answer with reported Kd of VH SEQ ID NO 530 / VL SEQ ID NO 438 (antibody, IgG4, V domains shown, humanized 11F2; IgG4 S228P/kappa) VH: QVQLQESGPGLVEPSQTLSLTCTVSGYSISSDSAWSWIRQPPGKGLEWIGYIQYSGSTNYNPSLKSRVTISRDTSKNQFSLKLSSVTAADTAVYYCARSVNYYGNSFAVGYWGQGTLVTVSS VL: EIVLTQSPATLSLSPGERATLSCRASQGVSDYLAWYQQKPGQAPRLLIKYASQPATGIPARFSGSGSGTDFTLTISSLEPEDVAVYYCQNGHSFPLTFGQGTKLEIK
4.6
